measured-on: T1, hen egg white lysozyme (Gallus gallus (hen egg white), UniProt P00698)
T1 construct: hen egg white lysozyme (HEWL), 14.5 kDa, monomeric; The source is named for ITC (Roche powder); also called HEWL; source: bought: Roche (HEWL lysozyme powder, > 95%)
assay-procedure: SPR; Biacore T200; lysozyme amine-coupled (EDC/NHS) to a CM5 chip, max 100 units; nanobody as analyte, multi-cycle kinetics; PBS with 0.01% tween20; 20 °C (row labels of Table 1); Langmuir 1:1 model
setup-conditions: both partners purified
Kindly state Kd for each of the entries shown.
Numbers only, in nM.

Some entries whose results are on file:
binder: Cab-Lys3 nanobody (VHH, crystal structure PDB 1XFP named for it (Muyldermans and Lauwereys 1999); CDR3 of 24 residues with an extra disulphide between CDR1 and CDR3; also called WT Cab-Lys3; source: E. coli T7-Express, purified (IMAC, Superdex-75)) VHH: DVQLQASGGGSVQAGGSLRLSCAASGYTIGPYCMGWFRQAPGKEREGVAAINMGGGITYYADSVKGRFTISQDNAKNTVYLLMNSLEPEDTAIYYCAADSTIYASYYECGHGLSTGGYGYDSWGQGTQVTVSS
recorded-value: 5
//
binder: Cab-Lys3 T101S nanobody (VHH, as the chain of m6 (Cab-Lys3) with T101S in CDR3; source: E. coli T7-Express, purified (IMAC, Superdex-75)) VHH: DVQLQASGGGSVQAGGSLRLSCAASGYTIGPYCMGWFRQAPGKEREGVAAINMGGGITYYADSVKGRFTISQDNAKNTVYLLMNSLEPEDTAIYYCAADSSIYASYYECGHGLSTGGYGYDSWGQGTQVTVSS
recorded-value: 135
//
binder: Phage-B09 nanobody (VHH, selected by phage display from the NaLi-H1 synthetic library (Hybrigenics); also called P-B09; source: E. coli T7-Express, purified (IMAC, Superdex-75)) VHH: EVQLQASGGGFVQPGGSLRLSCAASGSTYRRSTMGWFRQAPGKEREFVSAISSDHSHPDYYADSVKGRFTISRDNSKNTVYLQMNSLRAEDTATYYCAFQYDSDKKSYWGQGTQVTVSS
recorded-value: 1300

I have this binder here, Cab-Lys3 S105N nanobody (VHH, as the chain of m6 (Cab-Lys3) with S105N in CDR3; source: E. coli T7-Express, purified (IMAC, Superdex-75)) VHH: DVQLQASGGGSVQAGGSLRLSCAASGYTIGPYCMGWFRQAPGKEREGVAAINMGGGITYYADSVKGRFTISQDNAKNTVYLLMNSLEPEDTAIYYCAADSTIYANYYECGHGLSTGGYGYDSWGQGTQVTVSS , and I need its recorded Kd.
35
